# target-system: UniProt O00519
# Sequence (O00519 whole entry): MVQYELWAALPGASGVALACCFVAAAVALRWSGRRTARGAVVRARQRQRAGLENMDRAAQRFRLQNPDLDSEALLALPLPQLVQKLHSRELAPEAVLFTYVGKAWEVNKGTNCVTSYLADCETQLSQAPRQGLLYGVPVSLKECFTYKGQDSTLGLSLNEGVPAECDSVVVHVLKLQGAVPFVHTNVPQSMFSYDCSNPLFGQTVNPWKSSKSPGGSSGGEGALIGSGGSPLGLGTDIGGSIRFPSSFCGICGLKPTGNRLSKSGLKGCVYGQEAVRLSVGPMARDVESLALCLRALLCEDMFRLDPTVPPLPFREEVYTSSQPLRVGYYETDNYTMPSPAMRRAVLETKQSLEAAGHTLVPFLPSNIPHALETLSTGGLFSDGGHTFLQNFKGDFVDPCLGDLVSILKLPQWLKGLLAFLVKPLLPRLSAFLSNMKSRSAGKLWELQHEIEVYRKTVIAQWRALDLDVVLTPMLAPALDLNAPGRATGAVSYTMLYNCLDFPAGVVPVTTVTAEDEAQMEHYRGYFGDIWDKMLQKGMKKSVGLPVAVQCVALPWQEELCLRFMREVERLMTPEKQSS
# experimental-protocol: Reversible inhibition of full length human FAAH assessed as inhibition of 3[H]-anandamide hydrolysis preincubated for 3 hrs measured after 15 mins post substrate addition by cell-based assay

[
  {
    "chem-smiles": "Cn1ccc2cc(-c3ccc4oc(N5Cc6ccccc6C5)nc4c3)ccc21",
    "target-system": "UniProt O00519",
    "quantity-unit": "nM",
    "IC50": 95
  },
  {
    "chem-smiles": "CCCCCCCC/C=C\\CCCCCCCC(=O)C(F)(F)F",
    "target-system": "UniProt O00519",
    "quantity-unit": "nM",
    "IC50": 187
  },
  {
    "chem-smiles": "CCn1ccc2cc(-c3ccc4oc(Nc5ccccc5)nc4c3)ccc21",
    "target-system": "UniProt O00519",
    "quantity-unit": "nM",
    "IC50": 92
  }
]

----------
# target-system: Fatty-acid amide hydrolase 1 (Rattus norvegicus)
# Sequence (P97612 whole entry): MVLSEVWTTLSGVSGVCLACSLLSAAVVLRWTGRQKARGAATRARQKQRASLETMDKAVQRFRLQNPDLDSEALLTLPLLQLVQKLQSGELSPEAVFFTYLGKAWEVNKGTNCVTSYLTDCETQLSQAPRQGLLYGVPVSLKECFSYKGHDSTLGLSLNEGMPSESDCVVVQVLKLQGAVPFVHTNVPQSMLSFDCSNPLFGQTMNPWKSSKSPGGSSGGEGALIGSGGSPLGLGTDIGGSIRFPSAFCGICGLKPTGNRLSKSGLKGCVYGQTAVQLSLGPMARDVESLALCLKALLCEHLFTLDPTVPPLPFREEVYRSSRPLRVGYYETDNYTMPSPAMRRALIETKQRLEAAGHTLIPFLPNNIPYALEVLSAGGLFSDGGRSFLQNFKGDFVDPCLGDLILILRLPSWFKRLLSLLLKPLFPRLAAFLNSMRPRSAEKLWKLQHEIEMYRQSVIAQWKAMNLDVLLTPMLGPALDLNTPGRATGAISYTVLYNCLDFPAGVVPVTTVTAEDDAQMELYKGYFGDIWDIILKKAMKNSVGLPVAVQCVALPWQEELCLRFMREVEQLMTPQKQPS
# experimental-protocol: Inhibition of rat FAAH expressed in HEK293 cells using arachadonyl 7-amino 4-methyl coumarin amide as substrate by fluorimetric assay

[
  {
    "chem-smiles": "CCn1ccc2cc(-c3ccc4oc(Nc5ccccc5)nc4c3)ccc21",
    "IC50 (nM)": 586
  },
  {
    "chem-smiles": "Cn1ccc2cc(-c3ccc4oc(N5Cc6ccccc6C5)nc4c3)ccc21",
    "IC50 (nM)": 413
  },
  {
    "chem-smiles": "O=C(Nc1ccccc1)N1CCC(Cc2cnc3ccccc3c2)CC1",
    "IC50 (nM)": 17
  }
]

----------
# target-system: Fatty-acid amide hydrolase 1 (Homo sapiens)
# experimental-protocol: Inhibition of human FAAH expressed in HEK293 cells using arachadonyl 7-amino 4-methyl coumarin amide as substrate by fluorimetric assay
# Format: cell-based

[
  {
    "chem-smiles": "Cn1ccc2cc(-c3cccc4nc(N5Cc6ccccc6C5)oc34)ccc21",
    "IC50": "> 1000 nM"
  },
  {
    "chem-smiles": "NC(=O)c1cccc(-c2ccc3oc(NC4CCCCC4)nc3c2)c1",
    "IC50": "> 1000 nM"
  },
  {
    "chem-smiles": "Cn1ccc2cc(-c3ccc4nc(N5Cc6ccccc6C5)oc4c3)ccc21",
    "IC50": "> 1000 nM"
  }
]
